In this section, each of the compounds is paired with its reported DC50.
Measurement target: BRD9 (Homo sapiens)
Sequence (Q9H8M2 1-597): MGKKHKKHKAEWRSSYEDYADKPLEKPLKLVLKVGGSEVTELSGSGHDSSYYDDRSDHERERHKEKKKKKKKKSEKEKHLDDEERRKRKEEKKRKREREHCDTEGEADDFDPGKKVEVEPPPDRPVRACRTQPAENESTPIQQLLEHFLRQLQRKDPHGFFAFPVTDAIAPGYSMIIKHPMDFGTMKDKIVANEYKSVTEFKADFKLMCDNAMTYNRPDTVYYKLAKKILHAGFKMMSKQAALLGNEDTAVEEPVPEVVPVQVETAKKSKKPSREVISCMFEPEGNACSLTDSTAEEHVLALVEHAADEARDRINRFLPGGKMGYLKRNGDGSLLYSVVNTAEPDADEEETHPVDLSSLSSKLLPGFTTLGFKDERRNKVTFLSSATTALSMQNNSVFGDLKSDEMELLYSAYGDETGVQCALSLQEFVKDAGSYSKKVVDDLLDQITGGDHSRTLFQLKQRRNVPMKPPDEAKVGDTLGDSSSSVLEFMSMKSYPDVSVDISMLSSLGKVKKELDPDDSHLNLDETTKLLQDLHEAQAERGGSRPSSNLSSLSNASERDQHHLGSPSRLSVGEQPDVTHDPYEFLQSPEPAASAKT
Experiment summary: Degradation of BRD9 (IF), immunofluorescence in MV4-11 cells, 24 hours (Assay Protocol 2)
Format: cell-based
Set-up: A suspension of MV4-11 cells (ATCC CRL-9591) was prepared; host or cells: MV4-11
Assay conditions: Assay protocol 2; BRD9 degradation; read-out: DC50

// worked examples, DC50 included
Compound	DC50
COc1cc(-c2cn(C)c(=O)c(C)c2C)cc(OC)c1CN1CCN(Cc2cccc3c2CCN(C(=O)/C(C#N)=C/C(C)(C)C)C3C)[C@H](C)C1 (mixture of isomers)	0.01 to 0.025 µM
COc1cc(-c2cn(C)c(=O)c(C)c2C)cc(OC)c1CN1CCN(c2cccc(C3CCCN3C(=O)/C(C#N)=C/C(C)C)c2)CC1 (mixture of isomers)	0.00125 to 0.01 µM
COc1cc(-c2cn(C)c(=O)c(C)c2C)cc(OC)c1CN1CCN(C(=O)CCCCOc2ccc(C3CCCN3C(=O)/C(C#N)=C/c3nccs3)cc2)CC1 (mixture of isomers)	0.025 to 1 µM
COc1cc(-c2cn(C)c(=O)c(C)c2C)cc(OC)c1CN1CCN(Cc2cccc3c2CCN(C(=O)/C(C#N)=C/C(C)C)C3C(C)C)CC1 (mixture of isomers)	0.00125 to 0.01 µM
COc1cc(-c2cn(C)c(=O)c(C)c2C)cc(OC)c1CN1CCN(CCc2cccc3c2CCN(C(=O)/C(C#N)=C/C(C)(C)C)C3C)C2(CC2)C1 (mixture of isomers)	0.01 to 0.025 µM

Lab note: COc1cc(-c2cn(C)c(=O)c(C)c2C)cc(OC)c1CN1CCN(Cc2cccc3c2CCN(C(=O)/C(C#N)=C/C(C)(C)CF)C3C)C2(CC2)C1 (single isomer, unassigned) gave DC50 of < 0.00125 µM

Lab note: COc1cc(-c2cn(C)c(=O)c(C)c2C)cc(OC)c1CN1CCN(Cc2cccc3c2CCN(C(=O)/C(C#N)=C/C2(C)CCOCC2)C3C)C2(CC2)C1 (mixture of isomers) gave DC50 of < 0.00125 µM
